target: Acetylcholinesterase (Rattus norvegicus)
Sequence (P37136 whole entry): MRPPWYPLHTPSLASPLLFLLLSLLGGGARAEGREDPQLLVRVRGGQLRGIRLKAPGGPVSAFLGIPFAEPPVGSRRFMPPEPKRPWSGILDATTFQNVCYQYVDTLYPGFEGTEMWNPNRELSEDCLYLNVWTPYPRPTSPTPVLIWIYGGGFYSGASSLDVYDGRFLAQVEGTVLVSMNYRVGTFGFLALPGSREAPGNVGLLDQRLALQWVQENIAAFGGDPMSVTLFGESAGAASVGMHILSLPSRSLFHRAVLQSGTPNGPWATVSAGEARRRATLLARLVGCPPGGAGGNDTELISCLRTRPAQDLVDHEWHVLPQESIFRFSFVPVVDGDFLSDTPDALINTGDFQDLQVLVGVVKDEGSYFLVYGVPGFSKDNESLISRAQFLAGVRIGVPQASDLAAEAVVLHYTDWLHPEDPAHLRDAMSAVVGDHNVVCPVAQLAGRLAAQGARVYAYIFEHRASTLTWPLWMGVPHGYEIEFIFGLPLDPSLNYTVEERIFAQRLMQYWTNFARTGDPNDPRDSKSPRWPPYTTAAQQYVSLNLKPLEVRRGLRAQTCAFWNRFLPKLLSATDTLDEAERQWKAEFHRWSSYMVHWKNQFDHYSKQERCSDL
Lab note: cut-off is 9 µM. Strictly less in IC50 is satisfied. Exactly 9 µM or more is not satisfied.

Is the reported IC50 for CCN(C)C(=O)Oc1ccc(-c2coc3cc(OC(=O)N(C)CC)cc(O)c3c2=O)cc1 strictly below 9 µM? not satisfied

Is the reported IC50 for CCN(CC)C(=O)Oc1cc(O)c2c(c1)OC(c1ccc(O)cc1)CC2=O (centres undefined) strictly below 9 µM? not satisfied

Is the reported IC50 for CCN(CC)C(=O)Oc1ccc(C2CC(=O)c3c(O)cc(OC(=O)N(CC)CC)cc3O2)cc1 (centres undefined) strictly below 9 µM? not satisfied

Is the reported IC50 for O=C1CC(c2ccc(O)cc2)Oc2cc(O)cc(O)c21 (centres undefined) strictly below 9 µM? not satisfied

Is the reported IC50 for O=C1CC(c2ccc(OC(=O)N3CCCC3)cc2)Oc2cc(OC(=O)N3CCCC3)cc(O)c21 (centres undefined) strictly below 9 µM? not satisfied

Is the reported IC50 for CON(C)C(=O)Oc1ccc(-c2cc(=O)c3c(O)cc(OC(=O)N(C)OC)cc3o2)cc1 strictly below 9 µM? not satisfied

Is the reported IC50 for O=C1CC(c2ccc(OC(=O)N(c3ccccc3)c3ccccc3)cc2)Oc2cc(OC(=O)N(c3ccccc3)c3ccccc3)cc(O)c21 (centres undefined) strictly below 9 µM? not satisfied

Is the reported IC50 for CCN(C)C(=O)Oc1ccc(C2CC(=O)c3c(OC(=O)N(C)CC)cc(OC(=O)N(C)CC)cc3O2)cc1 (centres undefined) strictly below 9 µM? satisfied

Is the reported IC50 for O=c1c(-c2ccc(O)cc2)coc2cc(O)cc(O)c12 strictly below 9 µM? not satisfied

Is the reported IC50 for CCN(C)C(=O)Oc1ccc(-c2cc(=O)c3c(OC(=O)N(C)CC)cc(OC(=O)N(C)CC)cc3o2)cc1 strictly below 9 µM? satisfied

Is the reported IC50 for CCN(C)C(=O)Oc1ccc(-c2cc(=O)c3c(O)cc(OC(=O)N(C)CC)cc3o2)cc1 strictly below 9 µM? satisfied

Is the reported IC50 for O=C1CC(c2ccc(OC(=O)N3CCOCC3)cc2)Oc2cc(OC(=O)N3CCOCC3)cc(O)c21 (centres undefined) strictly below 9 µM? not satisfied

Is the reported IC50 for CON(C)C(=O)Oc1ccc(-c2coc3cc(OC(=O)N(C)OC)cc(O)c3c2=O)cc1 strictly below 9 µM? not satisfied

Is the reported IC50 for CCN(C)C(=O)Oc1ccc(-c2coc3cc(OC(=O)N(C)CC)cc(OC(=O)N(C)CC)c3c2=O)cc1 strictly below 9 µM? satisfied
